These measurements were taken from PubChem BioAssay.

- Target Or System: Fibroblast growth factor 2 (Homo sapiens)
- Assay Method Text: FGF2 binders on small-molecule microarrays, primary screen, biochemical, small-molecule microarray, 635/667 nm fluorescence (AID 1133)
- Measurement Parameters: small-molecule microarray binding, FGF2, fluorescence 635/667; higher = more signal
Reported Endpoint: composite z-score
Give only the figure.

Data request: What does the data say about its composite z-score? Entry: COCCOC(=O)N1C(=O)[C@@]2(c3cc(C#CC4(O)CCCCCC4)ccc31)[C@H](c1ccc(O)cc1)N1[C@H](c3ccccc3)[C@H](c3ccccc3)OC(=O)[C@H]1[C@@H]2C(=O)NC[C@H](O)c1ccccc1
Data returned: 1.64

Data request: What does the data say about its composite z-score? Entry: O=C(NCC(F)(F)F)[C@@H]1c2ccccc2C(=O)N(Cc2cc(F)cc(C(F)(F)F)c2)[C@H]1c1ccc(CO)cc1
Data returned: -0.843

Data request: What does the data say about its composite z-score? Entry: C=CC[C@@]1(C(=O)N2CCOCC2)N=C(c2ccc(OCCCO)cc2)O[C@@H]1c1ccccc1CN=[N+]=[N-]
Data returned: 1.45

Data request: What does the data say about its composite z-score? Entry: CCOC(=O)C1=CC[C@@H](c2cccc(Cl)c2)N(S(=O)(=O)c2ccc(C)cc2)C1
Data returned: -0.0072

Data request: What does the data say about its composite z-score? Entry: C[C@]1(C(=O)NC2CC2)c2ccccc2C(=O)N(Cc2ccccc2)[C@H]1c1ccc(CO)cc1
Data returned: -0.517

Data request: What does the data say about its composite z-score? Entry: CN(C)C(=O)C1N=C(c2ccc(OCCCO)cc2)N(c2ccccc2)O1 (configuration not stated)
Data returned: 1.8

Data request: What does the data say about its composite z-score? Entry: O=C(NCC(F)(F)F)[C@@H]1c2ccccc2C(=O)N(Cc2ccc(OC(F)(F)F)cc2)[C@H]1c1ccc(CO)cc1
Data returned: 0.45

###

- Target Or System: Focal adhesion kinase 1 (Homo sapiens)
- Assay Method Text: small-molecule microarray binders of FAK, primary screen, biochemical, 635/667 nm fluorescence, BSA, DTT (AID 1130);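 also: composite of spot emission at 667 nm and signal to noise over triplicate slides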
- Measurement Parameters: PTK2 binding, 635 nm fluorescence, higher = more signal
For each of the molecules below, state its composite z-score.
Give only the figure.

Data request: What does the data say about its composite z-score? Entry: COCCOC(=O)N1C(=O)[C@@]2(c3cc(C#CC4=CCCCC4)ccc31)[C@H](c1ccc(OCCO)cc1)N1[C@H](c3ccccc3)[C@H](c3ccccc3)OC(=O)[C@H]1[C@@H]2C(=O)N1CCN(c2ncccn2)CC1
Data returned: 0.067

Data request: What does the data say about its composite z-score? Entry: [N-]=[N+]=Nc1ccccc1[C@H]1OC(c2ccc(OCCCO)cc2)=N[C@@]1(CCS(=O)(=O)c1ccccc1)C(=O)NCCN1CCOCC1
Data returned: 0.56

Data request: What does the data say about its composite z-score? Entry: Cc1ccc(S[C@]2(C(=O)NCCCN(C)C)CC(=O)N(C3CCCCC3)[C@@H]2c2ccc(CO)cc2)cc1
Data returned: 0.116

Data request: What does the data say about its composite z-score? Entry: C=CCN1Cc2ccccc2[C@H]2OC(c3ccc(OCCCO)cc3)=N[C@@]2(CC=C)C1=O
Data returned: 1.12

Data request: What does the data say about its composite z-score? Entry: CC(C)Cc1ccc(CN2CC[C@@H](NC(=O)Nc3ccccc3)C2)cc1
Data returned: 0.0749

Data request: What does the data say about its composite z-score? Entry: CCCCCCc1nc(C2CC2)cc2c1[Si](C(C)C)(C(C)C)O[C@H]2c1ccccc1
Data returned: 0.0181

Data request: What does the data say about its composite z-score? Entry: CCC(CC)C(O)C1C=CC2C(=O)N(c3ccccc3)C(=O)C2N1Nc1ccc(C(C)C)cc1 (stereo not drawn)
Data returned: 0.902

Data request: What does the data say about its composite z-score? Entry: COc1ccc(C(O)C2C=CC3C(=O)N(c4ccccc4)C(=O)C3N2Nc2ccc([N+](=O)[O-])cc2)cc1 (stereo not drawn)
Data returned: 0.961

###

- Assay Method Text: small-molecule microarray binders of probe aXIP, primary screen, biochemical, NeuroSMM set, 635/667 nm fluorescence (AID 1119);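 also: probe is the protein aXip251-270 applied at 1 µg/mL to compound-printed slides; binding of probe to printed compounds measured as 667 nm fluorescence plus signal to noise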
- Measurement Parameters: higher = more signal, called active from +8 up or from −8 down
For each of the compounds below, state its composite Z-score.
Give only the figure.

Data request: What does the data say about its composite Z-score? Entry: CC(C)C[C@@H]1NC(=O)[C@@H]2C[C@H](C(=O)NCCCCN(C)C)[C@H](c3cccc(OCCO)c3)N2C1=O
Data returned: 0.157

Data request: What does the data say about its composite Z-score? Entry: O=C1NC(=O)C2C1C=CC(C(O)c1ccco1)N2Nc1ccccn1 (stereo not drawn)
Data returned: 0.0674

Data request: What does the data say about its composite Z-score? Entry: C=CCC(OC(C)=O)[C@@H]1[C@@H](N(Cc2ccc(-c3ccccc3)cc2)C(=O)Cc2ccc(F)cc2)c2cc(OCCCO)ccc2N1C(=O)Cc1ccc(OC)cc1 (stereo partly drawn)
Data returned: -0.101

Data request: What does the data say about its composite Z-score? Entry: CCC(CC)C(O)C1C=CC2C(=O)N(c3ccccc3)C(=O)C2N1Nc1ccc(C(C)C)cc1 (stereo not drawn)
Data returned: 0.15

Data request: What does the data say about its composite Z-score? Entry: C[N+](C)(C)CCCC[C@@H]1NC(=O)[C@H]2C[C@@H](C(=O)NCCCCCCN)[C@@H](c3ccc(O)cc3)N2C1=O
Data returned: 0.289

Data request: What does the data say about its composite Z-score? Entry: COCCCNC(=O)[C@]1(CCS(=O)(=O)c2ccccc2)N=C(c2ccc(OCCCO)cc2)O[C@@H]1c1ccccc1CN=[N+]=[N-]
Data returned: 0.0933

Data request: What does the data say about its composite Z-score? Entry: NC(N)=NCCCn1cc(CNC(=O)[C@@H](N)Cc2ccccc2)nn1
Data returned: 0.79

Data request: What does the data say about its composite Z-score? Entry: CC(C)(C)OC(=O)CC[C@@]1(C(=O)NCc2ccccc2)N=C(c2ccc(OCCCO)cc2)O[C@@H]1c1ccccc1N=[N+]=[N-]
Data returned: 0.399

###

- Target Or System: Calmodulin-1 (Homo sapiens) (UniProt P0DP23)
- Assay Method Text: CALM1 binders on microarrays, EGTA buffer, profiling panel, biochemical, small-molecule microarray, Cy5-labelled CALM1 (AID 1111);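 also: labelled calmodulin applied in Tris saline Tween buffer holding calcium plus EGTA and DTT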
- Measurement Parameters: Cy5-CALM1 binding fluorescence, higher = more signal
Could you label it Condition met if measured composite z-score is 0.07 or higher, and Condition not met otherwise?

Data request: Does the reported composite z-score for CCCC[C@@H]1C[C@H]1[C@@H](NC(=O)c1ccccc1)c1ccc(C(F)(F)F)cc1 fall at or above the 0.07 mark?
Data returned: Condition not met

Data request: Does the reported composite z-score for C=C(/C(=C/C[C@@H](OC(C)=O)c1cccc(OCCO)c1)c1cc(C(=O)OC)ccc1OC)C(C)C fall at or above the 0.07 mark?
Data returned: Condition not met

Data request: Does the reported composite z-score for O=C1O[C@@H](c2ccccc2)[C@@H](c2ccccc2)N2[C@@H](c3ccc(O)cc3)[C@]3(C(=O)Nc4ccc(C#CC5=CCCCC5)cc43)[C@@H](C(=O)NC[C@H](O)c3ccccc3)[C@H]12 fall at or above the 0.07 mark?
Data returned: Condition met

Data request: Does the reported composite z-score for C=CC1c2cc(O)c(OC)cc2CCN1Cc1cc2c(cc1Br)OCO2 (stereo not given) fall at or above the 0.07 mark?
Data returned: Condition not met

Data request: Does the reported composite z-score for C#CCN([C@@H](Cc1ccc(O)cc1)C(=O)OC)[C@@H](/C=C/C1CC1)[C@H](O)Cc1ccccc1 fall at or above the 0.07 mark?
Data returned: Condition not met

Data request: Does the reported composite z-score for CCCCCCc1nc(C2CC2)cc2c1[Si](C(C)C)(C(C)C)O[C@H]2c1ccccc1 fall at or above the 0.07 mark?
Data returned: Condition not met

Data request: Does the reported composite z-score for C=C(C)[C@@H]1CC=C(C(O)C2C=CC3C(=O)N(c4ccccc4)C(=O)C3N2Nc2ccccc2F)CC1 (stereo not given in full) fall at or above the 0.07 mark?
Data returned: Condition met

Data request: Does the reported composite z-score for COC1OC[C@]2(C)[C@H]3C4=C(CN2C(=O)OC(C)(C)C)[C@H](C)C(CO)C(CO)C4CC[C@@H]13 (stereo not given in full) fall at or above the 0.07 mark?
Data returned: Condition met

Data request: Does the reported composite z-score for COC(=O)[C@@]1(Cc2ccc(F)cc2)[C@H]2c3cc(C(=O)N4CCCC4)n(CCc4ccc(O)c(O)c4)c3C[C@H]2CN1C(=O)c1ccccc1 fall at or above the 0.07 mark?
Data returned: Condition met

Data request: Does the reported composite z-score for CCOC(=O)C[C@H]1[C@H](OC(=O)Cc2ccc3c(c2)OCO3)[C@@H](NC(=O)CC(C)C)c2cc(OCCCO)ccc2N1C(=O)Cc1ccc(OC)cc1 fall at or above the 0.07 mark?
Data returned: Condition not met

Data request: Does the reported composite z-score for [N-]=[N+]=Nc1ccccc1[C@H]1OC(c2ccc(OCCCO)cc2)=N[C@@]1(CCS(=O)(=O)c1ccccc1)C(=O)NCCN1CCOCC1 fall at or above the 0.07 mark?
Data returned: Condition met

Data request: Does the reported composite z-score for COc1ccc(CCN2C(=O)[C@@]3(Cc4ccccc42)c2ccccc2C(=O)N(Cc2ccccc2OC)[C@H]3c2ccc(CO)cc2)cc1 fall at or above the 0.07 mark?
Data returned: Condition not met

Data request: Does the reported composite z-score for [N-]=[N+]=NCc1ccccc1C[C@@]1(C(=O)N2CCOCC2)N=C(c2ccc(OCCCO)cc2)O[C@@H]1c1ccccc1 fall at or above the 0.07 mark?
Data returned: Condition met

Data request: Does the reported composite z-score for CC(CO)N1C(=O)[C@@H]2[C@H]3C(=O)OCC=C[C@H]3OC23C=CCN(CCN2CCOCC2)C(=O)[C@@H]13 (stereo not given in full) fall at or above the 0.07 mark?
Data returned: Condition not met

Data request: Does the reported composite z-score for COCCOC(=O)N1C(=O)[C@@]2(c3cc(C#Cc4ccc(OC)cc4)ccc31)[C@H](C(=O)Nc1nc3ccccc3s1)[C@H]1C(=O)O[C@H](c3ccccc3)[C@H](c3ccccc3)N1[C@@H]2c1ccc(O)cc1 fall at or above the 0.07 mark?
Data returned: Condition met
